Recorded measurements of EC50, one per entry
# Measurement target: human PPARγ2 (Homo sapiens, UniProt P37231)
# Construct: the amino acids 182 to 505 of human PPARγ2
# Sequence (P37231 182-505): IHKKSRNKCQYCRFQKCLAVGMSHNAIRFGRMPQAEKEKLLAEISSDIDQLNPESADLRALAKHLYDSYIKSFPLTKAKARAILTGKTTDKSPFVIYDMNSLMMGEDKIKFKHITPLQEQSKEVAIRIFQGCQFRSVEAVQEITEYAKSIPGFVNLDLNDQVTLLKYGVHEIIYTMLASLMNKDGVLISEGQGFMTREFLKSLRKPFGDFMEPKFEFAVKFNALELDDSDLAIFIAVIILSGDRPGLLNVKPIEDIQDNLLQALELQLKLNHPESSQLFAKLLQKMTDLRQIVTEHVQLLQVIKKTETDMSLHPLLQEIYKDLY
# Assay protocol: PPARγ activation activity, Gal4-PPARγ2 LBD luciferase transfection assay in COS7 cells
# Test conditions: Gal4-human PPARγ2 LBD chimera, luciferase reporter, 16 hours
Attribute measured: EC50 (nM)

Smiles entry	Measurement target	Attribute measured	Value unit	Test value
CCCCc1nc(-c2ccc(F)cc2)c(C(N)=O)n1Cc1ccc(-c2ccccc2-c2noc(=O)[nH]2)cc1	human PPARγ2 (Homo sapiens, UniProt P37231)	EC50	nM	3430
CCCCc1nc(-c2ccc(F)cc2)c(CO)n1Cc1ccc(-c2ccccc2-c2noc(=O)[nH]2)cc1	human PPARγ2 (Homo sapiens, UniProt P37231)	EC50	nM	1520
CCCCc1nc(-c2ccc(F)cc2)c(C(=O)N(CC)CC)n1Cc1ccc(-c2ccccc2-c2noc(=O)[nH]2)cc1	human PPARγ2 (Homo sapiens, UniProt P37231)	EC50	nM	2370
CCCCc1nc(-c2ccc(F)cc2)c(C(=O)NCC)n1Cc1ccc(-c2ccccc2-c2noc(=O)[nH]2)cc1	human PPARγ2 (Homo sapiens, UniProt P37231)	EC50	nM	2280
CCCCc1nc(-c2ncc(OCC)cn2)c(C(=O)OC)n1Cc1ccc(-c2ccccc2-c2noc(=O)[nH]2)cc1	human PPARγ2 (Homo sapiens, UniProt P37231)	EC50	nM	560
CCCCc1nc(-c2ccc(F)cc2)c(C(=O)N(CC)CC)n1Cc1ccc(-c2ccccc2-c2nnn[nH]2)cc1	human PPARγ2 (Homo sapiens, UniProt P37231)	EC50	nM	3300

----------
# Measurement target: human PPARγ2 (Homo sapiens)
# Construct: the amino acids 182 to 505 of human PPARγ2
# Assay protocol: PPARγ activation activity, Gal4-PPARγ2 LBD luciferase transfection assay in COS7 cells
# Test conditions: Gal4-human PPARγ2 LBD chimera, luciferase reporter, 16 hours
// values below are reported EC50

Compound	Measurement target	EC50 [µM]
CCCCc1nc(-c2ccc(F)cc2)c(C(=O)N2CCOCC2)n1Cc1ccc(-c2ccccc2-c2nnn[nH]2)cc1 [Example 18]	human PPARγ2 (Homo sapiens)	4.32
CCCCc1nc(-c2ncc(OCC)cn2)c(C(=O)OC)n1Cc1ccc(-c2ccccc2-c2nnn[nH]2)cc1 [Example 8]	human PPARγ2 (Homo sapiens)	3.01
CCCCc1nc(-c2ncc(OCC)cn2)c(CO)n1Cc1ccc(-c2ccccc2-c2noc(=O)[nH]2)cc1 [Example 4]	human PPARγ2 (Homo sapiens)	1.48

----------
# Measurement target: angiotensin II type 1 receptor (Oryctolagus cuniculus, UniProt P34976)
# Construct: By using a specimen of isolated rabbit blood vessels
# Sequence (P34976 whole entry): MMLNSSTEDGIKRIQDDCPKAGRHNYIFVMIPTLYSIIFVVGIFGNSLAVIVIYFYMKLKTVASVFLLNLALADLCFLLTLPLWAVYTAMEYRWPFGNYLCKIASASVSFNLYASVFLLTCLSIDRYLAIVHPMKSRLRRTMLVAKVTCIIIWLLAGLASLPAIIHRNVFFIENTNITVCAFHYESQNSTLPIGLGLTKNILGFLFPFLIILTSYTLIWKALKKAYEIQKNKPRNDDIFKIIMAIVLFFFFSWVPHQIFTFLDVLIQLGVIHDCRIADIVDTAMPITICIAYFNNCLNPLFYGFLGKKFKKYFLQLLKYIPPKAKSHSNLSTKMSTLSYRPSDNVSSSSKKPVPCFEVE
# Assay protocol: Angiotensin II antagonistic activity in isolated rabbit blood vessels
# Test conditions: angiotensin II (10 nM)-induced contraction of rabbit thoracic aorta ring; read-out: Angiotensin II 50% inhibition concentration
pIC50: −log10 of the molar value.
Consider the following compounds and their measured pIC50 readings.
Attribute measured: pIC50

1. CCCCc1nc(-c2ccc(F)cc2)c(C(N)=O)n1Cc1ccc(-c2ccccc2-c2noc(=O)[nH]2)cc1 6.10
2. CCCCc1nc(-c2ccc(F)cc2)c(C(=O)N2CCCC2)n1Cc1ccc(-c2ccccc2-c2nnn[nH]2)cc1 5.16
3. CCCCc1nc(-c2ncc(OCC)cn2)c(C(=O)OC)n1Cc1ccc(-c2ccccc2-c2noc(=O)[nH]2)cc1 5.16
4. CCCCc1nc(-c2ncc(OCC)cn2)c(CO)n1Cc1ccc(-c2ccccc2-c2noc(=O)[nH]2)cc1 5.98
5. CCCCc1nc(-c2ccc(F)cc2)c(C(=O)NCC)n1Cc1ccc(-c2ccccc2-c2nnn[nH]2)cc1 6.00
6. CCCCc1nc(-c2ncc(OCC)cn2)c(CO)n1Cc1ccc(-c2ccccc2-c2nnn[nH]2)cc1 6.11
7. CCCCc1nc(-c2ccc(F)cc2)c(C(=O)NCC)n1Cc1ccc(-c2ccccc2-c2noc(=O)[nH]2)cc1 5.24
